Assay: growth suppression of PTEN-deleted HCT116, pilot screen, cell-based, HCT116 clonal line, CellTiter-Glo (AID 824);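 note: 0% = 20 µM Hyamine control and 100% = vehicle cell control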
Settings: 60 h, at 10 µM, stronger effect = lower value
Results filed as inconclusive are left out.
Measurement name: viability (%)

| Molecule | Reported result |
| --- | --- |
| O=c1c2ccccc2nnn1CSc1nnc(-c2ccco2)o1 | 86.5 |
| CCC(C)Nc1nc2c(c(=O)n(C)c(=O)n2C)n1Cc1ccc(Cl)cc1 (centres undefined) | 70.6 |
| Oc1c(C(c2ccc(F)cc2)N2CCc3ccccc3C2)sc2ncnn12 (centres undefined) | 91.7 |
| Cc1nn(C)c(C)c1S(=O)(=O)N(CC(=O)Nc1nccs1)c1ccc(C(C)C)cc1 | 90.5 |
| CC1CCCCN1S(=O)(=O)c1coc(C(N)=O)c1 (centres undefined) | 96.8 |
| CC(=O)N1CC2(C)CN(C(C)=O)CC(C)(C1)C2=O | 102 |
| O=C(NCC1CCCO1)C1CC(=O)N(c2ccc(F)c(Cl)c2)C1 (centres undefined) | 94.1 |
| O=C(NC1CCN(Cc2ccccc2)CC1)C1CCCN(c2nnc(-n3cccc3)s2)C1 (centres undefined) | 84.5 |
| O=C(Nc1ccc(Br)cc1F)c1ccncc1 | 98.6 |
| Cc1ccc(OCC(=O)O)c(-n2nc3ccccc3n2)c1 | 102 |
| O=C(O)CCc1ccc(-c2cccs2)n1-c1ccc(C(=O)O)cc1 | 93.5 |
| c1ccc(-c2noc(CN3CCN(c4ccccc4)CC3)n2)cc1 | 97.3 |
| CC(=O)CCc1c(C)c2cccc(C)c2[nH]c1=O | 96.5 |
| N#CC1=C(SCC(N)=O)NC(=O)CC1c1ccccc1Cl (centres undefined) | 96.5 |
| Fc1cc(Br)ccc1Nc1nc2ccccc2n2nnnc12 | 87.2 |
| O=C(Nc1ccncc1)c1ccc2c(c1)OCCO2 | 84 |
| O=C(c1nnc(Cc2ccc(Cl)cc2)o1)N1CCOCC1 | 107 |
| COc1ccc(Br)cc1/C=N/n1c(C)nnc1C | 67.5 |
| CCOC(=O)Cn1c(=O)oc2cc(S(=O)(=O)NCC3CCCO3)ccc21 (centres undefined) | 103 |
| CCCN1CCN(C(=O)Cn2ncc3ccccc32)CC1 | 98.2 |
| c1csc(Cc2nc(-c3ccc(-n4cccc4)cc3)no2)c1 | 93.8 |
| CCS(=O)(=O)Nc1cc(-c2nc3cccnc3s2)ccc1C | 82.8 |
| Clc1ccc(-c2nc(-c3ccccn3)no2)cc1Cl | 67.7 |
| CCOC(=O)c1cccc(NC(=O)C2CCCN2S(=O)(=O)c2cccc3cccnc23)c1 (centres undefined) | 89.8 |
